Origin of the recorded values: patent US20250275981A1

- Test system: MCF10A cells
- Protocol: Cells were authenticated by the supplier (http://www.ATCC.org) and cultured as recommended by ATCC for less than six months from the time of resuscitation. […] Cells were allowed to attach and grow at 37° C. and 5% CO2. […] After 4 days of drug treatment cells were stained with Hoechst and ImageIT® Dead Green to quantify total and live cells as detailed below. […]
measurement-kind: cytotoxicity towards non-tumorigenic MCF10A cells as compared to HCC1806 cells

- compound: "CC(=O)O[C@H]1C[C@H](O[C@H]2[C@@H](O)C[C@H](O[C@H]3[C@@H](O)C[C@H](O[C@H]4CC[C@@]5(C)[C@H](CC[C@@H]6[C@@H]5C[C@@H](O)[C@]5(C)[C@@H](C7=CC(=O)OC7)CC[C@]65O)C4)O[C@@H]3C)O[C@@H]2C)O[C@H](C)[C@H]1O[C@@H]1O[C@H](CO)[C@@H](O)[C@H](O)[C@H]1O [Lanatoside C, lanatoside C]"
  tested-target: "MCF10A cells"
  measurement: "very sensitive"
- compound: "CC(=O)c1c(C)c2cnc(Nc3ccc(N4CCNCC4)cn3)nc2n(C2CCCC2)c1=O [Palbociclib Isethionate, palbociclib isethionate]"
  tested-target: "MCF10A cells"
  measurement: "very sensitive"

====

- Tested on: ZR-75-1
- assay-overview: Cell viability drug titration (EC50), 4 days of drug treatment
- Assay type: cell-based
- condition: Homo sapiens, 96 h; ZR-75-1 parental (Luminal A, ER+); single agent; 4 days; read-out: EC50
measurement-kind: EC50 (µM)

- compound: "Nc1nc(Cl)nc2c1ncn2[C@H]1C[C@H](O)[C@@H](CO)O1"
  measurement: 0.75
- compound: "CC(=O)c1c(C)c2cnc(Nc3ccc(N4CCNCC4)cn3)nc2n(C2CCCC2)c1=O [Palbociclib Isethionate, palbociclib isethionate]"
  measurement: 0.71
- compound: "COC(=O)C[C@](O)(CCCC(C)(C)O)C(=O)O[C@@H]1C(OC)=C[C@]23CCCN2CCc2cc4c(cc2[C@H]13)OCO4"
  measurement: 0.117

====

molecules and their reported pEC50
- Tested on: BT549
- assay-overview: Cell viability drug titration (EC50), 4 days of drug treatment
- Format: cell-based
- condition: Homo sapiens, BT-549, 96 h; BT549 parental (TNBC); single agent; 4 days; read-out: EC50
- Text: Significance was defined as p<0.05.
pEC50: −log10 of the molar value.
measurement-kind: pEC50

- molecule: "COC(=O)C[C@](O)(CCCC(C)(C)O)C(=O)O[C@@H]1C(OC)=C[C@]23CCCN2CCc2cc4c(cc2[C@H]13)OCO4"
  measurement-kind: "pEC50"
  measurement: 7.05
- molecule: "CC(=O)c1c(C)c2cnc(Nc3ccc(N4CCNCC4)cn3)nc2n(C2CCCC2)c1=O [Palbociclib Isethionate, palbociclib isethionate]"
  measurement-kind: "pEC50"
  measurement: 4.90
- molecule: "Nc1nc(Cl)nc2c1ncn2[C@H]1C[C@H](O)[C@@H](CO)O1"
  measurement-kind: "pEC50"
  measurement: 6.75
